target: Glucose transporter (Leishmania mexicana) (UniProt O61059); assay: ST_JUDE_LEISH: Cytotoxicity at 2uM final concentration against transgenic Leishmania Mexicana promastigotes LmGT2 that are glucose transport deficient and complemented with the L. Mexicana glucose transporter 2. Activity is measured by DNA content using SYBR green in vitro; assay type: functional
Items are presented alongside their recorded inhibition.
EXPERIMENTAL_ENDPOINT: inhibition (%)

Cc1cc(=O)c2cc(-c3ccc(OC(F)(F)F)cc3)ccc2[nH]1    -0.86
COc1cc2nc(NCCc3ccccc3)nc(NCCCc3ccccc3)c2cc1OC    2.36
CCCCOC(=O)C1=C(C)NC2=C(C(=O)CCC2)C1c1ccc(OC)c(Br)c1 (stereo not given)    -1.96
CCN(CC)c1ccc(NC(=S)NC2CCN(CCCCCNC(=O)/C=C/c3ccc(Cl)c(Cl)c3)CC2)cc1    6.22
COc1ccc(-c2cccc(NC(=O)c3ccc(Cl)cc3)c2)cc1CN(C)CCN(C)C    6.97

---

target: Hexose transporter 1 (Plasmodium falciparum) (UniProt O97467); assay: ST_JUDE_LEISH: Cytotoxicity at 2uM final concentration against transgenic Leishmania Mexicana promastigotes LmPfHT that are glucose transport deficient and complemented with the Plasmodium falciparum hexose transporter. Activity is measured by DNA content using SYBR green in vitro; assay type: functional
Items are presented alongside their recorded inhibition.
EXPERIMENTAL_ENDPOINT: inhibition (%)

CCOC(=O)C(=CNc1ccc(Cc2cnc(N)nc2N)cc1CC)C(=O)OCC    2.16
CC(=O)c1ccc2cc(C(=O)NC3CCC(CCN4CCc5ccc(-c6noc(C)n6)cc5CC4)CC3)[nH]c2c1 (stereo not drawn)    -0.01
Cc1noc(C)c1-c1cccc(CNCc2cccc(-c3cccc(-c4nc5cc(F)ccc5[nH]4)c3)c2)c1    5
O=c1cc(NCCCNCc2scc3c(Cl)cc(C(F)(F)F)nc23)[nH]c2ccccc12    2.43
Cc1cc(OCCCN2CCCCC2)ccc1NC(=O)COc1ccc(Cl)cc1C(=O)c1cc(Cl)cc(C#N)c1    19.1
CN(C)C(CNC(=O)c1cc(-c2ccncc2)c(-c2ccc(NC(=O)Nc3cccc(F)c3)cc2)o1)c1ccccc1 (stereo not drawn)    0.71
N#Cc1cccc(-c2ccc(C(=O)Nc3ccc4c(c3)CCN(C3CCC3)CC4)cn2)c1    4.8
COc1ccc(CN(C)CC(O)COc2ccc(NC(=O)c3cccc4c(=O)c5cccc(OC)c5[nH]c34)cc2)cc1OC (stereo not drawn)    3.04

---

Items are presented alongside their recorded inhibition.
biological target: Glucose transporter (Leishmania mexicana); test: ST_JUDE_LEISH: Cytotoxicity at 2uM final concentration against transgenic Leishmania Mexicana promastigotes LmGT2 that are glucose transport deficient and complemented with the L. Mexicana glucose transporter 2. Activity is measured by DNA content using SYBR green in vitro; format: functional
EXPERIMENTAL_ENDPOINT: inhibition (%)

O=C(Nc1ccc(Oc2ccccc2)cc1)N1CCC(CCN2CCC(c3c[nH]c4ccccc34)CC2)CC1    5.21
CCCC(C)Nc1nc(C)cc(NCCC(=O)Nc2ccccc2)n1 (stereo not given)    2.55
NCC1CCCN1Cc1cccc(-c2ccc(-c3nc4ccccc4[nH]3)s2)c1 (stereo not given)    7.51
N#Cc1c(N2CCN(c3ccc(F)cc3)CC2)nc(N)c2c(N)nc3c(c12)CC(=O)N3C1CC1    13.5
Cc1ccc(F)cc1S(=O)(=O)NCC(C)c1ccc(NC(=O)Nc2cccc(F)c2)cc1 (stereo not given)    -0.29
